src = patent US5776739A

# Tested on: alkaline phosphatase
# Measurement notes: Residual alkaline phosphatase activity after storage as dried powder (Test Example 4)
# Type: biochemical, calf
# Conditions used: sugar 50 mM; dry powder stored at 50° C. for 24 hours
Recorded metric: Residual activity

1) C[C@H]1O[C@H](O[C@H]2O[C@H](CO)[C@@H](O)[C@H](O)[C@H]2O)[C@H](O)[C@@H](O)[C@H]1O
62.5%
2) C[C@@H]1OC(O)[C@@H](O)[C@H](O)[C@@H]1O[C@H]1O[C@H](CO)[C@@H](O)[C@H](O)[C@H]1O (stereo partly shown)
83.0%
3) OC[C@H]1O[C@H](O[C@H]2[C@H](O)[C@@H](O)[C@H](O)O[C@@H]2CO)[C@H](O)[C@@H](O)[C@@H]1O
41.0%
4) OC[C@H]1O[C@H](O[C@H]2O[C@H](CO)[C@@H](O)[C@H](O)[C@H]2O)[C@H](O)[C@@H](O)[C@@H]1O
55.0%
